These measurements were taken from patent US9850205B2.

test description: In vivo pharmacokinetic comparison study in SD rats (gavage, LC-MS/MS plasma concentration)
run conditions: both sexes, SD (Sprague-Dawley), rat, plasma, po, 10 mg/kg, SD rats, males and females together, gavage 10 mg/kg suspension; read-out: time to peak Tmax
measurement name: Tmax (h)
Respond numerically; units are h and should not be typed.

Quickly give me recorded Tmax for CCOc1cc([C@@H](CS(C)(=O)=O)N2C(=O)c3cccc(NC(C)=O)c3C2=O)ccc1OC [Form B]
1.6

* * *

test description: In vivo pharmacokinetic comparison study in SD rats (gavage, LC-MS/MS plasma concentration)
run conditions: male, SD (Sprague-Dawley), rat, plasma, po, 10 mg/kg, male rats, gavage 10 mg/kg suspension; read-out: time to peak Tmax
measurement name: Tmax (h)
Respond numerically; units are h and should not be typed.

Please list Tmax recorded for the molecule CCOc1cc([C@@H](CS(C)(=O)=O)N2C(=O)c3cccc(NC(C)=O)c3C2=O)ccc1OC [Form B]
1
